System: HCT-15 colon
Experiment: NCI tumour cell line growth inhibition, 48 h
I'd appreciate it if you could supply TGI values for the items below.

Exercise: Given `CS(=O)(=O)O[C@H]1C(=O)N(c2cc3c4ccccc4ccc3c3ccccc23)[C@@H]1c1ccccn1` , state its recorded TGI.
Key: > 100 µM

Exercise: Follow-up item: `O=C(O)CCC(=O)Oc1ccc(O)c2c1CCCC2=O`
Key: > 100 µM

Exercise: Follow-up item: `Cc1cncc(-c2nc(NCCc3c[nH]c4ccccc34)c3ncn(C(C)C)c3n2)c1`
Key: 3.82 µM

Exercise: Follow-up item: `Cc1cc2c(C(=O)NCC#N)cccc2n1-c1nc2c(c(NCc3ccccc3)n1)CCCC2`
Key: 0.404 µM

Exercise: Follow-up item: Cc1cc(O)c2c(c1)C(C1OC(CO)C(O)C(O)C1O)c1cc(O)cc(O)c1C2=O (stereo not drawn)
Key: > 100 µM

Exercise: Follow-up item: `O=C(NCCCl)NCCN1c2nc3ccccc3cc2Sc2cc3ccccc3nc21`
Key: > 40 µM

Exercise: Follow-up item: N#CC(C#N)=Cc1ccc(C(O)P(=O)(O)O)cc1 (stereo not drawn)
Key: > 100 µM

Exercise: Follow-up item: `O=S(=O)(O)c1ccc(Nc2ccnc3ccccc23)cc1`
Key: > 100 µM

---

I'd appreciate it if you could supply TGI values for the items below.
System: A549 NSCLC
Experiment: NCI tumour cell line growth inhibition, 48 h

Exercise: Given `O=C1C(Cl)=C(N2CCN(CCOCCO)CC2)C(=O)c2ccccc21` , state its recorded TGI.
Key: 34.2 µM

Exercise: Follow-up item: `C[C@@H](Oc1ccc(Oc2cnc3ccc(Cl)cc3n2)cc1)C(=O)O`
Key: > 100 µM

Exercise: Follow-up item: `O=c1c2cccc(F)c2sc2c(NCCCNCCO)nc3ccccc3c12`
Key: 3.08 µM

Exercise: Follow-up item: `C/C(=N\Nc1nc2ccccc2o1)c1ncccn1`
Key: 12.1 µM

Exercise: Follow-up item: `O=C1c2cccc([N+](=O)[O-])c2C(=O)c2nccnc21`
Key: 3.37 µM

Exercise: Follow-up item: `O=C(CCC(=O)Nc1ccc(Cl)cc1)CC(=O)c1ccc2ccccc2c1`
Key: > 100 µM

Exercise: Follow-up item: `CCOc1cc(/C=N/c2nc3cc4sc(/N=C/c5ccc(O)c(OCC)c5)nc4cc3s2)ccc1O`
Key: > 100 µM

Exercise: Follow-up item: Clc1cc2nc(C3CCCCO3)[nH]c2cc1Cl (stereo not drawn)
Key: > 100 µM

Exercise: Follow-up item: COC(=O)CC1C2(C)C3=C(C)C(c4ccoc4)CC3OC2C2OC(=O)C3(C)C=CC(=O)C1(C)C23 (stereo not drawn)
Key: 11.4 µM

Exercise: Follow-up item: N#CC(C(=O)CCC(=O)Nc1ccc(Cl)cc1)c1ccc(Cl)cc1 (stereo not drawn)
Key: > 100 µM

Exercise: Follow-up item: `O=C(O)CCNc1ncc2c(n1)-c1ccccc1OC2`
Key: > 100 µM

Exercise: Follow-up item: Cc1cc(Cl)ccc1NC(=O)CC1SC(=NC(=O)c2ccccc2Cl)NC1=O (stereo not drawn)
Key: > 100 µM

Exercise: Follow-up item: `O=C(O)CCC(=O)Oc1ccc(O)c2c1CCCC2=O`
Key: > 100 µM

Exercise: Follow-up item: `CC(C)(C)CNCCCNc1ccc(Cl)cc1`
Key: > 100 µM

Exercise: Follow-up item: `Fc1ccc(Nc2ncc(-c3cc(F)c(Cl)cc3Cl)s2)cc1Cl`
Key: 31.3 µM

Exercise: Follow-up item: NC(CP(=O)(O)O)C(=O)O (stereo not drawn)
Key: > 100 µM

Exercise: Follow-up item: CN1CN(c2ccccc2)C2(CCN(C3Nc4ccccc4O3)CC2)C1=O (stereo not drawn)
Key: > 100 µM

Exercise: Follow-up item: CC(C)(C)C(O)CC(O)(C(F)(F)F)C(F)(F)F (stereo not drawn)
Key: > 100 µM

Exercise: Follow-up item: CCCCC(O)(c1ccccc1)C(O)(c1ccccc1)c1c(F)c(F)c(F)c(F)c1F (stereo not drawn)
Key: > 100 µM

Exercise: Follow-up item: CC(C)(C)[Si](C)(C)OC1[C@@H](O[Si](C)(C)C(C)(C)C)[C@@H](CNC(=O)NC(=O)NC(=O)CCl)O[C@H]1n1cnc2c(NC(=O)Nc3ccccc3)ncnc21 (stereo partly drawn)
Key: 8.92 µM

Exercise: Follow-up item: `CC(=O)n1nnc2ccc([N+](=O)[O-])cc21`
Key: > 100 µM

Exercise: Follow-up item: `COc1cccc(CCNC(=O)CC(c2ccccc2)(c2ccccc2)c2ccccc2)c1`
Key: 96.5 µM

Exercise: Follow-up item: `CCNC(=O)Oc1ccc(/C(=C(\C)c2ccc(Cl)cc2)c2ccc(OCCN(CC)CC)cc2)cc1`
Key: 18.4 µM

---

I'd appreciate it if you could supply TGI values for the items below.
Tested on: LXFL 529 NSCLC
Assay: NCI tumour cell line growth inhibition, 48 h

Exercise: Please tell me: TGI of N#CC(C(=O)CCC(=O)Nc1ccc(Cl)cc1)c1ccc(Cl)cc1 (stereo unspecified) , system LXFL 529 NSCLC?
Key: > 100 µM

Exercise: Follow-up item: `CN(C)CCCOc1ccc(/C=C2/CCC/C(=C/c3ccc(OCCCN(C)C)cc3)C2=O)cc1`
Key: 7.12 µM

Exercise: Follow-up item: `O=C1C(Cl)=C(N2CCN(CCOCCO)CC2)C(=O)c2ccccc21`
Key: 3.37 µM

Exercise: Follow-up item: `O=C(O)CCC(=O)Oc1ccc(O)c2c1CCCC2=O`
Key: > 100 µM

Exercise: Follow-up item: `CC12CC/C(=N/NC(N)=O)C3C1CCCC32`
Key: > 100 µM

Exercise: Follow-up item: `O=S1(=O)OCCOS(=O)(=O)C1(Cl)Cl`
Key: > 100 µM

Exercise: Follow-up item: COC(=O)C(=O)C(C#N)c1cccc(Cl)c1 (stereo unspecified)
Key: > 100 µM

Exercise: Follow-up item: `Cn1cnc([N+](=O)[O-])c1Sc1nc2ccccc2o1`
Key: 12.9 µM

Exercise: Follow-up item: `Cn1nc(-c2ccccc2)c2c(/C=C/c3ccc(Cl)cc3)onc2c1=O`
Key: > 100 µM

Exercise: Follow-up item: Cc1cc2nc3c(=O)[nH]c(=O)nc-3n(CC(O)C(O)C(O)CO)c2cc1N (stereo unspecified)
Key: > 100 µM

Exercise: Follow-up item: `COc1ccc(Cc2cc(OC)c(OC)c(OC)c2)cc1`
Key: > 100 µM

---

I'd appreciate it if you could supply TGI values for the items below.
Test system: CAKI-1 renal
Assay: NCI tumour cell line growth inhibition, 48 h
Where a SMILES comes first, the peptide text is derived from it. The star is where a group is joined. Boc = CC(C)(C)OC(=O)*

Exercise: Given `CON=C1C[C@]2(C[C@@H]3C[C@@H](C/C=C(\C)C[C@@H](C)/C=C/C=C4\CO[C@@H]5[C@H](O)C(C)=C[C@@H](C(=O)O3)[C@]45O)O2)O[C@H](/C(C)=C/C(C)C)[C@H]1C` , state its recorded TGI.
Key: 21.6 µM

Exercise: Follow-up item: Cc1cc(Cl)ccc1NC(=O)CC1SC(=NC(=O)c2ccccc2Cl)NC1=O (stereo not given)
Key: 33.9 µM

Exercise: Follow-up item: CC(NC(=O)C1CCCN1C(=O)CNC(=O)OC(C)(C)C)C(=O)O (stereo not drawn) (Boc-Gly-Pro-Ala-OH; configuration not given here)
Key: > 100 µM

Exercise: Follow-up item: CC1=NNC(=O)C1C1CC(c2c[nH]c3ccccc23)=NN(c2ccccc2)C1=O (stereo not given)
Key: > 100 µM

Exercise: Follow-up item: `COc1ccc(-c2[nH]c(-c3ccc(OC)cc3)c(-c3ccccn3)c2-c2ccccn2)cc1`
Key: > 100 µM

Exercise: Follow-up item: CO[C@H](C(=O)O[C@H]1C(=O)N2CC[C@@H]3CCC[C@H]1C32C)c1ccccc1 (stereo not given in full)
Key: > 100 µM

Exercise: Follow-up item: CN1CN(c2ccccc2)C2(CCN(C3Nc4ccccc4O3)CC2)C1=O (stereo not given)
Key: > 100 µM

Exercise: Follow-up item: `CCCC(=O)N(C)N=Nc1ccc(C(=O)OCC)cc1`
Key: > 100 µM

Exercise: Follow-up item: Clc1cc2nc(C3CCCCO3)[nH]c2cc1Cl (stereo not given)
Key: > 100 µM

Exercise: Follow-up item: `CC(=O)Nc1c2sscc-2n(C)c1=O`
Key: 3.36 µM

Exercise: Follow-up item: `O=S(=O)(O)c1ccc(Nc2ccnc3ccccc23)cc1`
Key: > 100 µM

Exercise: Follow-up item: `Fc1ccc(Oc2nc3ccccc3nc2-c2ccccc2)cc1`
Key: > 100 µM

Exercise: Follow-up item: `Cc1occc1C(=S)Nc1ccc(Cl)c(C(=O)OCC(C)C)c1`
Key: 37.8 µM

Exercise: Follow-up item: `COc1ccc(/C(=C/c2ccc3ccccc3c2)c2nn[nH]n2)cc1OC`
Key: > 100 µM

Exercise: Follow-up item: `CCC1=C[C@@H]2CN(C1)Cc1c([nH]c3ccccc13)[C@@](C(=O)OC)(c1cc3c(cc1OC)N(C)[C@H]1[C@@](O)(C(=O)OC)[C@H](OC(C)=O)[C@]4(CC)C=CCN5CC[C@]31[C@@H]54)C2`
Key: 2.52 µM

Exercise: Follow-up item: O=C(Nc1ccn(C2CC(I)C(COC(c3ccccc3)(c3ccccc3)c3ccccc3)O2)c(=O)n1)c1ccccc1 (stereo not given)
Key: 21.5 µM

Exercise: Follow-up item: `CN(CC(=O)O)CC(=O)O`
Key: > 100 µM

Exercise: Follow-up item: `O=C(CCc1ccc(O)c(O)c1)NCCc1ccccc1`
Key: 41 µM

Exercise: Follow-up item: `Cc1cc2c(C(=O)NCC#N)cccc2n1-c1nc2c(c(NCc3ccccc3)n1)CCCC2`
Key: > 100 µM

Exercise: Follow-up item: CC(C)=CC1C(COC(=O)c2ccccc2Cl)C1(C)C (stereo not given)
Key: > 100 µM
